Tested on: NCI-H460 lung
Test: NCI tumour cell line growth inhibition, 48 h

[
  {
    "compound": "CC1(C)S[C@@H]2[C@H](NC(=O)/C=C/c3ccccc3)C(=O)N2[C@H]1C(=O)O",
    "targetDesc": "NCI-H460 lung",
    "TGI": "> 100 µM"
  },
  {
    "compound": "O=C1/C(=C\\c2c(-c3ccccc3)nn(-c3ccccc3)c2O)C(c2ccccc2)=NN1c1ccccc1",
    "targetDesc": "NCI-H460 lung",
    "TGI": "> 100 µM"
  },
  {
    "compound": "O=C1CSC(/C=C/c2ccccc2)N1c1ccc(-n2c(-c3ccccc3)nc3ccccc3c2=O)cc1 (configuration not stated)",
    "targetDesc": "NCI-H460 lung",
    "TGI": "> 100 µM"
  },
  {
    "compound": "CCOC(=O)CCc1c(C)[nH]c2c(C)c3c([nH]c4ccc(Cl)cc43)c(C)c2c1=O",
    "targetDesc": "NCI-H460 lung",
    "TGI": "6.11 µM"
  },
  {
    "compound": "NC1=NS(=O)(=O)Nc2nc(-c3cccs3)[nH]c21",
    "targetDesc": "NCI-H460 lung",
    "TGI": "> 100 µM"
  },
  {
    "compound": "NC(=O)CCC(NC(=O)C(F)(F)F)C(=O)O (configuration not stated)",
    "targetDesc": "NCI-H460 lung",
    "TGI": "> 100 µM"
  },
  {
    "compound": "CCOC(=O)CNC(=O)C(CSC(=O)N(C)O)NC(=O)CCC(N)C(=O)O (configuration not stated)",
    "targetDesc": "NCI-H460 lung",
    "TGI": "> 2000 µM"
  },
  {
    "compound": "CCOC(=O)C(Cc1cn(S(=O)(=O)c2ccc(C)cc2)cn1)P(=O)(OCC)OCC (configuration not stated)",
    "targetDesc": "NCI-H460 lung",
    "TGI": "> 100 µM"
  },
  {
    "compound": "C=CCC1=CC2(OC)C(=O)C(OC)(OC)C1C1C(OC)(OC)C(=O)C(OC)=CC12CC=C (configuration not stated)",
    "targetDesc": "NCI-H460 lung",
    "TGI": "> 100 µM"
  },
  {
    "compound": "CN(C)CCC(C(=O)C(C)(C)C)c1ccccn1 (configuration not stated)",
    "targetDesc": "NCI-H460 lung",
    "TGI": "> 100 µM"
  },
  {
    "compound": "CNC(=O)OCCN1c2ccccc2Sc2ccccc21",
    "targetDesc": "NCI-H460 lung",
    "TGI": "> 100 µM"
  },
  {
    "compound": "CS[C@@]1(C(=O)Nc2ccc3[nH]nc(-c4ccc(OC(C)C)nc4)c3c2)CCN(CC(=O)N2CC=C(c3ccc(-c4ncn(C)n4)cc3)CC2)C1",
    "targetDesc": "NCI-H460 lung",
    "TGI": "> 100 µM"
  },
  {
    "compound": "CCCOCN1COCN=C1NC#N",
    "targetDesc": "NCI-H460 lung",
    "TGI": "> 100 µM"
  },
  {
    "compound": "Cc1ccccc1NC(=O)C(=O)Cc1cnc2ccccc2n1",
    "targetDesc": "NCI-H460 lung",
    "TGI": "> 100 µM"
  },
  {
    "compound": "CO[C@H](c1ccccc1)[C@H](C)N(C)c1ccc2ccccc2c1C1=NC(C)(C)CO1",
    "targetDesc": "NCI-H460 lung",
    "TGI": "33 µM"
  },
  {
    "compound": "O=[N+]([O-])c1ccc(-c2ccccc2)c([As](=O)(O)O)c1",
    "targetDesc": "NCI-H460 lung",
    "TGI": "> 100 µM"
  },
  {
    "compound": "CCOC(=O)CC(N1CC1)N1CC1",
    "targetDesc": "NCI-H460 lung",
    "TGI": "> 10 µM"
  }
]

----------
Reported TGI values for the following compounds.
System: OVCAR-5 ovarian
Assay: NCI tumour cell line growth inhibition, 48 h

[
  {
    "compound": "C[C@]12CC[C@H](O)CC1=CC[C@@H]1[C@@H]2CC[C@]2(C)C(=O)CC[C@@H]12",
    "TGI": "> 100 µM"
  },
  {
    "compound": "Oc1[nH]c2ccc(Cl)cc2c1/C=c1/ccc2c(c1)N=C(c1cc(F)cc(F)c1)N=2",
    "TGI": "> 100 µM"
  },
  {
    "compound": "CC(C)(C)C(=O)[CH-]C(=O)C(F)(F)C(F)(F)C(F)(F)F.CC(C)(C)C(=O)[CH-]C(=O)C(F)(F)C(F)(F)C(F)(F)F.[O-]CC1OC(O)C(O)C(O)C1O.[O-]CC1OC(O)C(O)C(O)C1O.[Ti+4]",
    "TGI": "> 100 µM"
  },
  {
    "compound": "C[C@]12CCCC(=O)C1C[C@H](C(=O)O)CC2 (stereo partly specified)",
    "TGI": "> 100 µM"
  },
  {
    "compound": "O=[N+]([O-])c1cc(/C=N/NS(=O)(=O)c2ccc(F)cc2)c(O)c([N+](=O)[O-])c1",
    "TGI": "> 100 µM"
  },
  {
    "compound": "CCCCOc1ccc(S(=O)(=O)/N=C(\\NN)Nc2ccc(Cl)cc2)cc1",
    "TGI": "52.9 µM"
  },
  {
    "compound": "Cc1sc(/N=C2/NC(=O)CS2)nc1-c1nc(/N=C2/NC(=O)CS2)sc1C",
    "TGI": "> 50 µM"
  },
  {
    "compound": "CON",
    "TGI": "> 100 µM"
  },
  {
    "compound": "O=C(Nc1cc(Cl)c(Cl)cc1Cl)C(=O)C(C(=O)c1ccc2ccccc2c1)C1OC(=O)c2ccccc21 (stereo unspecified)",
    "TGI": "31.9 µM"
  },
  {
    "compound": "c1ccc2nc3cc4c(cc3nc2c1)NC12CCCCC1CC1=C(CCCC1)N42 (stereo unspecified)",
    "TGI": "> 10 µM"
  },
  {
    "compound": "CCOc1cc(NC(C)=O)ccc1C(=O)NN1C(=O)CSC1c1ccc(O)c(OC)c1 (stereo unspecified)",
    "TGI": "> 100 µM"
  },
  {
    "compound": "C/C(CN1C(=O)c2ccccc2C1=O)=N\\NS(=O)(=O)c1ccc(F)cc1",
    "TGI": "> 100 µM"
  },
  {
    "compound": "COC(=O)/C(=N\\O)C(C(=O)C=C(C)C)C(=O)C(=O)Nc1ccccc1C (stereo unspecified)",
    "TGI": "> 100 µM"
  },
  {
    "compound": "CP(C)C.[Ag][I]",
    "TGI": "> 100 µM"
  },
  {
    "compound": "CCOC(=O)C(Cc1ccc(OC)cc1)C(=O)OCC",
    "TGI": "24.2 µM"
  },
  {
    "compound": "Cc1ccc(-c2cc(/C=N/O)on2)cc1",
    "TGI": "> 100 µM"
  },
  {
    "compound": "N#CSCC(=O)c1ccc(Cl)cc1",
    "TGI": "27.9 µM"
  },
  {
    "compound": "CCOC(=O)N1CCC(=O)C[C@@H]1C/C=C/P1(=O)O[C@H](c2ccccc2)C(C)N1C(C)C (stereo partly specified)",
    "TGI": "> 100 µM"
  },
  {
    "compound": "CC1=NN(c2ccccc2)C(=O)C1=C1SCCCS1",
    "TGI": "> 100 µM"
  },
  {
    "compound": "Cc1cc(=O)oc2c(CNC(C(=O)O)C(C)O)c(O)ccc12 (stereo unspecified)",
    "TGI": "> 100 µM"
  },
  {
    "compound": "CC1=NN(c2ccccc2)C(=O)C1N=Nc1ccc(Br)c(C)c1 (stereo unspecified)",
    "TGI": "> 100 µM"
  }
]

----------
Tested on: A498 renal
Test: NCI tumour cell line growth inhibition, 48 h
Respond with Fulfilled for TGI values of 30 µM and above, Not fulfilled for values below.

[
  {
    "compound": "CC1OC(OC2C(O[C@@H]3C[C@@H]4CC[C@@H]5[C@H](CC[C@]6(C)[C@@H]7[C@H](C[C@@H]56)O[C@]5(CC[C@@H](C)CO5)[C@H]7C)[C@@]4(C)C[C@H]3O)OC(CO)C(OC3OC(CO)C(O)C(O)C3O)C2O)C(O)C(O)C1O (stereo partly specified)",
    "categoryLabel": "Not fulfilled"
  },
  {
    "compound": "Cc1nc(N)sc1C(=O)/C=C/c1ccc([N+](=O)[O-])cc1",
    "categoryLabel": "Fulfilled"
  },
  {
    "compound": "CC(=O)O/C=C\\OC1CCCC1",
    "categoryLabel": "Fulfilled"
  },
  {
    "compound": "O=S(Cc1cc2c(cc1Br)OCO2)c1ccccc1 (stereo unspecified)",
    "categoryLabel": "Fulfilled"
  },
  {
    "compound": "CC1CC(NN(C)C)C2(C(N)=O)C(N)=NC(=O)C12C#N (stereo unspecified)",
    "categoryLabel": "Fulfilled"
  },
  {
    "compound": "c1ccc2c3nnc(c2c1)SCCSCCCSCCS3",
    "categoryLabel": "Fulfilled"
  },
  {
    "compound": "CCCCCc1c(C)[nH]c(/C=c2\\[nH]/c(=C3/C=c4ccccc4=N3)cc2OC)c1C",
    "categoryLabel": "Not fulfilled"
  },
  {
    "compound": "O=C(/C=C/c1cccc(B(O)O)c1)c1cccc(B(O)O)c1",
    "categoryLabel": "Not fulfilled"
  },
  {
    "compound": "COc1ccccc1OC(=O)/C=C/c1ccccc1",
    "categoryLabel": "Fulfilled"
  },
  {
    "compound": "COCC12CC(CC1=O)C1C2ON2c3ccccc3C(=O)C12c1ccccc1 (stereo unspecified)",
    "categoryLabel": "Fulfilled"
  },
  {
    "compound": "O=C(/C=C/c1ccc(Cl)c(Cl)c1)C1CCC(Cl)CC1 (stereo unspecified)",
    "categoryLabel": "Fulfilled"
  },
  {
    "compound": "N#C/C(=C\\c1ccc(O)cc1O)C(N)=O",
    "categoryLabel": "Fulfilled"
  },
  {
    "compound": "CCC[CH2][Sn]1([CH2]CCC)[O]C(=O)c2cc(C)ccc2[O]1",
    "categoryLabel": "Not fulfilled"
  },
  {
    "compound": "N#CC12Cc3ccc4c(c3-c3cccc(c31)CCN2C(=O)c1ccccc1)OCO4 (stereo unspecified)",
    "categoryLabel": "Fulfilled"
  },
  {
    "compound": "O=C(NC/C(Cl)=C/Cl)Nc1cccc2c1CCCC2",
    "categoryLabel": "Fulfilled"
  },
  {
    "compound": "Cc1cc(C)c2c(c1)C(=O)C1(C2)Cc2c(ccc(C)c2C)C1=O (stereo unspecified)",
    "categoryLabel": "Fulfilled"
  },
  {
    "compound": "Oc1[nH]c2ccccc2c1N=NC(=S)N1CCCC1",
    "categoryLabel": "Not fulfilled"
  },
  {
    "compound": "Cc1cc(=O)[nH]c2c3c(ccc12)OC(C)(C)C=C3",
    "categoryLabel": "Fulfilled"
  },
  {
    "compound": "CC(=O)OCC(=O)C1(O)C(C)CC2C3C=C(C)C4=Cc5c(cnn5-c5ccccc5)CC4(C)C3C(O)CC21C (stereo unspecified)",
    "categoryLabel": "Not fulfilled"
  }
]
